# measuredTarget: T1, Cid1 D160A (Schizosaccharomyces pombe, UniProt O13833 40-377, D160A)
# T1 sequence: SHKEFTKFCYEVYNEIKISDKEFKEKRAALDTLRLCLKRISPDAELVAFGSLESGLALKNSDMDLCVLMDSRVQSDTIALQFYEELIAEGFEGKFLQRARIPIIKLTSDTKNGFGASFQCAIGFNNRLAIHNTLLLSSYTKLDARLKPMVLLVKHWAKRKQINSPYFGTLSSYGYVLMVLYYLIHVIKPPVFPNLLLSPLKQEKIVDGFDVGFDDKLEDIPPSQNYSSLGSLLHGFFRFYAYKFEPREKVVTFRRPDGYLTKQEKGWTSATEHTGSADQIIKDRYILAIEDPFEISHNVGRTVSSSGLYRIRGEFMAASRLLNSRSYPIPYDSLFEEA
# assayMethodText: EMSA
pKd: −log10 of the molar value.
reportedMetric: pKd

input: Look at this binder and give its reported pKd. UUUUUUUUUUUUUUU (ssRNA) [U15]
output: ~6.00

Each recorded value in this set is attributed to paper PMC3950679.
